# log10 of Ki listing for each entry below
target: human μ-opiate receptor (Homo sapiens, UniProt P35372); experiment: Affinity for the human μ-opiate receptor ([3H]-naloxone displacement, SPA, CHO-K1 membrane preparation); format: binding; conditions: read-out: μ-Opioid receptor, Ki
Sequence (P35372 whole entry): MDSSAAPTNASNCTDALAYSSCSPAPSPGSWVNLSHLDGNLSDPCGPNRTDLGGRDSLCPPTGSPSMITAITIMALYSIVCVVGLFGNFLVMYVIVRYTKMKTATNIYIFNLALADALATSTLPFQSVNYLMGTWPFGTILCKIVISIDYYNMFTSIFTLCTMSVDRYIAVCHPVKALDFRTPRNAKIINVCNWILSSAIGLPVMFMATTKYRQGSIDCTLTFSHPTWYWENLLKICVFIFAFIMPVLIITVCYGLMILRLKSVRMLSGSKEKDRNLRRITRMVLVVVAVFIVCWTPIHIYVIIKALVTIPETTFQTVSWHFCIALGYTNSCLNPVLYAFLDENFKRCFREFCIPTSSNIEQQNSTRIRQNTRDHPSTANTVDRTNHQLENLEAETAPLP
Where a name gives a salt, the structure may show the parent alone.
Scale: decimal log of Ki, Ki in nM.

# Compound, log10 of Ki
measured = [
    ("CN(C)C(CCc1ccccc1)C1CCC(NC(=O)c2ccc(F)c(C(F)(F)F)c2)CC1 (single isomer, unassigned) [compound 227]", 1.76),
    ("CN(C)C(c1ccccc1)C1CCC(CCNC(=O)c2cc3ccccc3s2)CC1 (stereo not shown)", 1.60),
    ("CN(C)C(c1ccccc1)C1CCC(Nc2ccccc2)CC1 (stereo not shown) [compound 92, hydrochloride]", 1.23),
]

Entry under test: CCC(C(=O)NCC1CCC(C(c2ccccc2)N(C)C)CC1)c1ccccc1 (stereo not shown) . Its log10 of Ki was 1.34

Value of log10 of Ki reported for the compound CN(C)C(c1ccccc1)C1CCC(NCCc2c[nH]c3ccccc23)CC1 (stereo not shown) [compound 83, hydrochloride] is 0.85

Entry Cc1cc(C(=O)NC2CCC(C(c3cccc(F)c3)N(C)C)CC2)c(C)o1 (stereo not shown) , log10 of Ki reported as 2.15

Summary for this compound, CN(C)C(c1ccccc1)C1CCC(CNC(=O)c2cccc(Cl)c2)CC1 (stereo not shown) : log10 of Ki is 1.04

====

molecular target: UniProt P35372; test: Affinity for the human μ-opiate receptor ([3H]-naloxone displacement, SPA, CHO-K1 membrane preparation); assay type: binding; details: read-out: μ-Opioid receptor, % inhibition [1 μM]
Observation Type: inhibition at 1 µM (%)
Write down the numeric answer in % and omit the unit.

Example entries begin here.
# Compound, inhibition at 1 µM, %
records = [
    ("CN(C)C(c1cccc(F)c1)C1CCC(CNC(=O)Cc2cccs2)CC1 (stereo not shown)", 90),
    ("CN(C)C(c1ccccc1)C1CCC(NC(=O)c2cccc([N+](=O)[O-])c2)CC1 (stereo not shown)", 74),
    ("Cc1ccccc1C(=O)NCC1CCC(C(c2ccccc2)N(C)C)CC1 (single isomer, unassigned)", 95),
    ("CN(C)C(CCc1ccccc1)C1CCC(NC(=O)c2ccc(F)c(C(F)(F)F)c2)CC1 (single isomer, unassigned)", 92),
    ("CN(C)C(c1cccs1)C1CCC(NC(=O)CC(C)(C)C)CC1 (stereo not shown)", 94),
    ("CN(C)C(c1ccccc1)C1CCC(CNC(=O)c2csc(-c3ccccc3)n2)CC1 (stereo not shown)", 92),
    ("CN(C)C(c1ccccc1)C1CCC(NC(=O)c2cccc(Cl)c2)CC1 (stereo not shown)", 100),
    ("CN(C)C(c1ccccc1)C1CCC(CNC(=O)Cc2ccc(Cl)cc2)CC1 (stereo not shown)", 95),
]

Record CN(C)C(c1ccc(Cl)cc1)C1CCC(CCNC(=O)c2cc(F)c(Cl)cc2Cl)CC1 (stereo not shown) has UniProt P35372 inhibition at 1 µM equal to 80

The value of inhibition at 1 µM recorded for CN(C)C(c1ccccc1)C1CCC(CNC(=O)c2cc(Cl)cc(Cl)c2)CC1 (stereo not shown) when tested on UniProt P35372 reads 94

Summary line: COc1c(C(=O)NC2CCC(C(c3cccc(F)c3)N(C)C)CC2)csc1Cl (stereo not shown) , UniProt P35372, reported inhibition at 1 µM = 99

Field inhibition at 1 µM (UniProt P35372), entry CN(C)C(c1ccccc1)C1CCC(CCNC(=O)c2ccc3snnc3c2)CC1 (stereo not shown) : 85

Query Cc1oc(-c2ccccc2)cc1C(=O)NCC1CCC(C(c2cccc(F)c2)N(C)C)CC1 (stereo not shown) on UniProt P35372; inhibition at 1 µM returned: 87

Entry CN(C)C(c1ccccc1)C1CCC(NC(=O)Cc2ccc(Cl)cc2)CC1 (stereo not shown) ; assay system UniProt P35372; inhibition at 1 µM recorded at 93

CN(C)C(c1ccccc1)C1CCC(CCNC(=O)c2csc(-c3ccc4c(c3)CCO4)n2)CC1 (stereo not shown) tested on UniProt P35372 gave inhibition at 1 µM: 83

Attribution: patent US8058475B2
